# EXPERIMENTAL SYSTEM: human D3 receptor (Homo sapiens)
# Sequence (P35462 whole entry): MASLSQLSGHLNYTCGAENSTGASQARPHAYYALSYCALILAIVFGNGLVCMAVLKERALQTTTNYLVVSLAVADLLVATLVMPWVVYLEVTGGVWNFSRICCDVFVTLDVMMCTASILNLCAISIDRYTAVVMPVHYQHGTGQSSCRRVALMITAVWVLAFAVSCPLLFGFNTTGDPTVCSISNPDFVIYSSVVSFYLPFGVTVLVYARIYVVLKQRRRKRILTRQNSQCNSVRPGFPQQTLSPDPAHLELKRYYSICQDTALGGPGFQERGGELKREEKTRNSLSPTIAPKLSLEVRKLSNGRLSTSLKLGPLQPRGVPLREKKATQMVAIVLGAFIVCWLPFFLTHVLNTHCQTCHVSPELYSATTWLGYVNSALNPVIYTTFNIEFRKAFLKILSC
QUANTITY MEASURED: Ki (nM)
Answer with a number only, understood to be in nM.

**Query** What does the record list as Ki for CN1CCc2c(c3ccccc3n2Cc2ccccc2)C1 [1.9(1)•½NDSA] ?
**Result** 462

###

# EXPERIMENTAL SYSTEM: recombinant human 5-HT2C receptor (Homo sapiens, UniProt P28335)
# Sequence (P28335 33-458): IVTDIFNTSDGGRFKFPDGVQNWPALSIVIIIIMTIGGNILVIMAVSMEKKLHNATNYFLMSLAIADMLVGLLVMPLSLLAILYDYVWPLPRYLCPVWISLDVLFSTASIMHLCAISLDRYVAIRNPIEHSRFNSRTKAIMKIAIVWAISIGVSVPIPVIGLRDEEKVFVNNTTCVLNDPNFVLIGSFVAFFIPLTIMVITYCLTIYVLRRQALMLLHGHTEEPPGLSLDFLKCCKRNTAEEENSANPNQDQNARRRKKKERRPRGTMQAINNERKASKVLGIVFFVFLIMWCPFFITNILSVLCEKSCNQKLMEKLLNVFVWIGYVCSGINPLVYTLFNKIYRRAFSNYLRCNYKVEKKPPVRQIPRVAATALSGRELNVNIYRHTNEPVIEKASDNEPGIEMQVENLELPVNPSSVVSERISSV
# MEASUREMENT DESCRIPTION: radioligand binding to serotonin receptor 5-HT2C ([3H] Mesulergine)
QUANTITY MEASURED: IC50 (nM)
Answer with a number only, understood to be in nM.

| COMPOUND | EXPERIMENTAL SYSTEM | UNIT INFO | IC50 |
| --- | --- | --- | --- |
| CN1CCc2c(c3ccccc3n2Cc2ccccc2)C1 | recombinant human 5-HT2C receptor (Homo sapiens, UniProt P28335) | nM | 13.5 |

In the following, a different compound is considered.
**Query** What does the record list as IC50 for CN1CCc2c(c3ccccc3n2Cc2ccccc2)C1.Cl [1.9(1)•HCl] ?
**Result** 33.7

###

# EXPERIMENTAL SYSTEM: recombinant human 5-HT1A (Homo sapiens, UniProt P08908)
# Construct: expressed in transfected cells; host or cells: CHO
# Sequence (P08908 whole entry): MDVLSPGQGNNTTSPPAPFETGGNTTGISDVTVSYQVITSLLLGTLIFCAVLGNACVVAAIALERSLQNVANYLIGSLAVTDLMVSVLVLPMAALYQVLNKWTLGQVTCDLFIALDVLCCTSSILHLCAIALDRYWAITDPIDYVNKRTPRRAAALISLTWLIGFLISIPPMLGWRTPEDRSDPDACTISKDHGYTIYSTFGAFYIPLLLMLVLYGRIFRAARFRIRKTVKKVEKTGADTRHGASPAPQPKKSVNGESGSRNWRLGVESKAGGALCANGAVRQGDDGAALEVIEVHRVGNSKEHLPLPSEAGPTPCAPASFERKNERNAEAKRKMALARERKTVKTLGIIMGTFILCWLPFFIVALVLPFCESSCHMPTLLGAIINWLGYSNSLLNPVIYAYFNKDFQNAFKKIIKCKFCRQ
# MEASUREMENT DESCRIPTION: radioligand binding to serotonin receptor 5-HT1A ([3H] 8-OH-DPAT)
# TEST PARAMETERS: 10 μM ligand
Counter-ions that a name gives are not always drawn.
QUANTITY MEASURED: 5-HT1A % inhibition (%)
Answer with a number only, understood to be in %.

# example entries with known answers
| MOLECULE | UNIT INFO | 5-HT1A % inhibition |
| --- | --- | --- |
| Cc1ccc2c(c1)c1c(n2CCc2ccccc2)CCN(C)C1.Cl [1.1.2(1-2)•HCl] | % | 84 |
| COc1ccc(CCn2c3c(c4cc(C)ccc42)CN(C)CC3)cc1.Cl [1.1.2(1-14)•HCl] | % | 57 |
| Cc1ccc2c(c1)c1c(n2CCc2ccc(C(F)(F)F)cc2)CCN(C)C1.Cl [1.1.2(1-18)•HCl] | % | 53 |
| Cc1ccc2c(c1)c1c(n2CCc2ccccc2)CCCN(C)C1 [1.2.2(1-2)•HCl] | % | 20 |
| Cc1ccc2c(c1)c1c(n2Cc2ccccc2)CCCN(C)C1.Cl [1.10(4)•HCl] | % | 19 |
| CN1CCc2c(c3cc(F)ccc3n2CCc2ccccc2)C1.Cl [1.1.2(1-6)•HCl] | % | 16 |

In the following, a different molecule is considered.
**Query** What does the record list as 5-HT1A % inhibition for Cc1ccc2c(c1)c1c(n2CCc2ccncc2)CCN(C)C1.Cl.Cl [1.1.2(5-2)•2HCl] ?
**Result** 17

The measurements presented in this section are drawn from patent US20110039825A1.
